test: Components of the Cytosolic LPS Sensing Pathway: Gene Identification via Genome-wide siRNA Screen; settings: RAW264.7 macrophages, IL-1a HTRF, actives lie on both sides, screened at 100 nM (by protocol), cells primed 5 h with Pam3CSK4 first;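 also: robust z of the log signal after scaling to non-targeting control siRNA wells of the plate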
Among all 53,000 sequences or so, about 3,700 (7%) were called active. This is one part of a sample in which actives are shown more often than they occur.
Label yes when z-score is strictly below 0.3; otherwise label no.

Use these answered entries as a reference point.
residue_string="GGUUUUUCUGAGUUUCCGUTT against Il4i1" label=yes
residue_string="GGAAUUUUACCUUUUGGAUTT against Tm9sf3" label=no
residue_string="GGAAACGAAGAGGAAGAAUTT against Ddit3" label=yes
residue_string="CCAAUGAUGGAGCUGAAGCTT against Ranbp1" label=yes
residue_string="GCCUGAGGAUCUAUAGAUATT against Prss29" label=yes
residue_string="CGGUAGAGUGCUUACGCAATT against Camk2g" label=no

Q) Please determine if GCGGCCUCUUGAAUGAUUCTT against Ccndbp1 is below 0.3 in terms of z-score.
A) no

Q) Please determine if GCUUGGACCAUAAAUACUGTT against Senp5 is below 0.3 in terms of z-score.
A) yes

Q) Please determine if GGUAGAAGAGAGUAUCAACTT against Commd1 is below 0.3 in terms of z-score.
A) no

Q) Please determine if CGAAGAGAUCAGUAAUAUGTT against Kif21a is below 0.3 in terms of z-score.
A) no

Q) Please determine if CCUCAUUCAAGAAACCUCATT against Comtd1 is below 0.3 in terms of z-score.
A) yes

====

assay: Components of the Cytosolic LPS Sensing Pathway: Gene Identification via Genome-wide siRNA Screen; conditions: RAW264.7 macrophages, IL-1a HTRF, actives lie on both sides, screened at 100 nM (by protocol), cells primed 5 h with Pam3CSK4 first;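 also: robust z of the log signal after scaling to non-targeting control siRNA wells of the plate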
Hit rate of the full screen: of about 53,000 sequences, about 3,700 (7%) were called active. The full list was thinned out, with actives kept by preference.
PARAMETER MEASURED: z-score
Lab note: write the figure by itself, no unit.

Solved cases below.
residue_string="GGGUAAUACUCUUUGGUGCTT against Olfr594" parameter_measured=z-score experimental_value=0.34
residue_string="GCCAGUGGUAGCGAUAUGATT against Zscan4c" parameter_measured=z-score experimental_value=-0.263
residue_string="GGAAAAGGUCAUUAUCAUUTT against Hsf3" parameter_measured=z-score experimental_value=-2.11

Record GGUAUCAAGGCUCUGGUGUTT against Ifnlr1 . Reported z-score: -0.602

Record GGUUCAAGGAUGAAUUAGATT against Trappc6b . Reported z-score: -2.03

Record GGAGAAGGAUUAUACCAGUTT against Rfesd . Reported z-score: 2.2

Record GGACAGAAUUGAAAUGCCUTT against Ropn1l . Reported z-score: -2.08

====

Assay: Components of the Cytosolic LPS Sensing Pathway: Gene Identification via Genome-wide siRNA Screen;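 also: robust z of the log signal after scaling to non-targeting control siRNA wells of the plate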
Conditions: RAW264.7 macrophages, IL-1a HTRF, actives lie on both sides, screened at 100 nM (by protocol), cells primed 5 h with Pam3CSK4 first
Procedure: Non-canonical inflammasome activation by cytosolic LPS is a critical component of the host response to Gram-negative bacterial infection, however we lack a comprehensive understanding of the cellular processes that control this pathway. […] Lipofectamine RNAiMAX Transfection Reagent ([…]; Invitrogen) was added in […] serum-free, antibiotic-free media to plate wells using a Thermo Scientific Matrix WellMate and Microplate Stacker. […] The plates were read on an EnVision plate reader (PerkinElmer). […]
The campaign covered roughly 53,000 sequences. About 3,700 (7%) were called active. Shown is part of a subset that was picked to be rich in actives.
Reported z-score values for the following sequences.

Solved cases below.
residue_string="GGAUGUACGGAAGCGAUUCTT against Gmpr2" parameter_measured=z-score experimental_value="0.404 (inactive)"
residue_string="GGGUACAAGCUUAUCAAUATT against Trpm6" parameter_measured=z-score experimental_value="4.91 (active)"
residue_string="CGAUUUGCAGCCCUCAUGATT against Inka1" parameter_measured=z-score experimental_value="-2.27 (active)"

Record CCCUCACUAUAACACUAUUTT against Six5 . Reported z-score: -0.418 (inactive)
